Taken from PubChem BioAssay.

Assay: LAP4-GFP expression modulators in yeast, confirmation, cell-based, cherry picks, flow cytometry, mother/daughter gates (AID 2271);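 also: ratio of sample to DMSO plate mean so 100% equals DMSO level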
Conditions: S. cerevisiae LAP4-GFP strain, 3 h, measured here: daughter cell gate response, at 10 µM, stronger effect = higher value, 100 means same as DMSO control
measured_attribute: GFP response relative to DMSO (%)
Hi! Could you send only the number? It should be in %, unit omitted.

{"compound": "CS(=O)(=O)Nc1ccc(C2=NN(S(C)(=O)=O)C(c3ccccc3)C2)cc1 (centres undefined)", "GFP response relative to DMSO (%)": 138}
{"compound": "O=C(O)c1ccc(/C=N/NC(=O)c2ccc(Br)cc2)cc1", "GFP response relative to DMSO (%)": 95.9}
{"compound": "CCN(Cc1ccccc1)S(=O)(=O)c1ccc(C(=O)Nc2nnc(-c3ccccc3OC)o2)cc1", "GFP response relative to DMSO (%)": 92.8}
{"compound": "COc1cccc2c1Oc1ncccc1N(C(=O)CCC(=O)NCc1ccccc1F)C2", "GFP response relative to DMSO (%)": 147}
{"compound": "CC(=O)S[C@@H]1CC2=CC(=O)CC[C@]2(C)[C@H]2CC[C@@]3(C)[C@@H](CC[C@@]34CCC(=O)O4)[C@H]12", "GFP response relative to DMSO (%)": 97.2}

Query block: Given COC(=O)Cn1c(C)c(/C=C/c2cc[n+](C)cc2)c2ccccc21 , state its recorded GFP response relative to DMSO.
Result block: 121

Query block: Given COc1ccc(NC(=S)NCCCCCC(=O)C[N+](=O)[O-])cc1 , state its recorded GFP response relative to DMSO.
Result block: 91.2

Query block: Given COc1cccc2c1Oc1ncccc1N(C(=O)CCC(=O)NCc1ccc(F)cc1)C2 , state its recorded GFP response relative to DMSO.
Result block: 101

Query block: Given Cc1cc(N2CCC(C)CC2)n2ncc(-c3ccccc3)c2n1 , state its recorded GFP response relative to DMSO.
Result block: 94.1

Query block: Given Cc1cc(C)nc(S/C=C/C(=O)c2ccccc2)n1 , state its recorded GFP response relative to DMSO.
Result block: 151

Query block: Given O=C(Nc1nc(-c2ccccn2)cs1)c1cc2ccccc2o1 , state its recorded GFP response relative to DMSO.
Result block: 163

Query block: Given N#C/C(=C\c1c(N2CCCCCC2)nc2ccccn2c1=O)C(=O)NCc1ccco1 , state its recorded GFP response relative to DMSO.
Result block: 96

Query block: Given COc1ccc(C2CC(=O)C(C(c3ccc(O)cc3)C3C(=O)CC(c4ccc(OC)cc4)CC3=O)C(=O)C2)cc1 (centres undefined) , state its recorded GFP response relative to DMSO.
Result block: 92

* * *

The following compounds are listed with their measured GFP response vs DMSO values.
Test: RPL19A-GFP modulators, yeast TOR pathway, confirmation, cell-based, S. cerevisiae, flow cytometry, cherry picks, mother/daughter gates (AID 2270)
Details: S. cerevisiae RPL19A-GFP strain, 3 h, at 10 µM, stronger effect = lower value, 100 = same GFP as DMSO wells
Hi! Could you send only the number? It should be in %, unit omitted.

A selection of reference data follows.
{"compound": "CS(=O)(=O)N1N=C(c2ccco2)CC1c1ccc(Br)cc1 (stereo not drawn)", "unit_label": "%", "GFP response vs DMSO": 98.4}
{"compound": "COc1ccccc1/C=C/C(=O)c1ccc(Cl)cc1", "unit_label": "%", "GFP response vs DMSO": 102}
{"compound": "O=C(c1ccccc1[N+](=O)[O-])n1cnc2ccccc21", "unit_label": "%", "GFP response vs DMSO": 100}
{"compound": "CCN(C(=O)c1ccccc1Cl)c1ccccc1", "unit_label": "%", "GFP response vs DMSO": 98.5}
{"compound": "COc1ccc(-c2csc(NC(=O)c3ccco3)n2)cc1", "unit_label": "%", "GFP response vs DMSO": 98.4}

Query block: Given O=S(=O)(c1ccc(-c2ccccc2)cc1)N1CCOCC1 , state its recorded GFP response vs DMSO.
Result block: 96.7

Query block: Given COCCNC(=O)/C(C#N)=C/c1c(N2CC(C)OC(C)C2)nc2ccccn2c1=O (stereo not drawn) , state its recorded GFP response vs DMSO.
Result block: 100

Query block: Given CC(=O)c1ccc2c3c(cccc13)C(=O)N(c1c(C)nn(C)c1C)C2=O , state its recorded GFP response vs DMSO.
Result block: 100

Query block: Given CCCCc1[nH]nc2c1C1(C(=O)N(CC)c3ccccc31)C(C#N)=C(N)O2 (stereo not drawn) , state its recorded GFP response vs DMSO.
Result block: 105

Query block: Given O=C(N/N=C/c1ccc(OCCCF)cc1)c1cc(OCC(F)(F)F)ccc1OCC(F)(F)F , state its recorded GFP response vs DMSO.
Result block: 98

Query block: Given O=C(CSc1nnc(-c2ccccn2)n1Cc1ccccc1)N1CCOCC1 , state its recorded GFP response vs DMSO.
Result block: 103

Query block: Given O=[N+]([O-])/C=C/c1cn(Cc2ccccc2)c2ccccc12 , state its recorded GFP response vs DMSO.
Result block: 103

Query block: Given Cc1c(/C=N/Nc2ccc(C(=O)O)cc2)c2ccccc2n1C , state its recorded GFP response vs DMSO.
Result block: 96.2

Query block: Given Cc1c([N+](=O)[O-])cnc(Sc2ccccc2)c1[N+](=O)[O-] , state its recorded GFP response vs DMSO.
Result block: 100

Query block: Given Cc1ccc(/C=C/c2ccc(N(C)C)cc2)[n+](C)c1 , state its recorded GFP response vs DMSO.
Result block: 101

Query block: Given COc1cc(/C=C2\N=C(c3c(-c4ccccc4)noc3C)OC2=O)ccc1OC(C)=O , state its recorded GFP response vs DMSO.
Result block: 98.6

Query block: Given O=c1oc(/C=C/c2ccc([N+](=O)[O-])s2)nc2ccccc12 , state its recorded GFP response vs DMSO.
Result block: 112

Query block: Given O=C1c2ccsc2SCCN1Cc1ccccc1 , state its recorded GFP response vs DMSO.
Result block: 93.8

Query block: Given Cc1ccc(S(=O)(=O)Nc2cc(Cl)c(O)c3ncccc23)cc1 , state its recorded GFP response vs DMSO.
Result block: 95.2

Query block: Given Cc1ccc(C(C[N+](=O)[O-])Sc2ccc(N)cc2)cc1 (stereo not drawn) , state its recorded GFP response vs DMSO.
Result block: 95.6

Query block: Given Cc1ccc(N2C(=O)C(Cl)=C(NCc3ccccc3)C2=O)c(C)c1 , state its recorded GFP response vs DMSO.
Result block: 96.2

Query block: Given O=C(Nc1nccs1)C(c1ccccc1)N1CCCCC1 (stereo not drawn) , state its recorded GFP response vs DMSO.
Result block: 103

Query block: Given CCc1nnc(NC(=O)c2ccc(S(=O)(=O)N(CC(C)C)CC(C)C)cc2)o1 , state its recorded GFP response vs DMSO.
Result block: 101

* * *

Assay: RPL19A-GFP modulators, yeast TOR pathway, confirmation, cell-based, S. cerevisiae, flow cytometry, cherry picks, mother/daughter gates (AID 2270)
Conditions: S. cerevisiae RPL19A-GFP strain, 3 h, at 10 µM, stronger effect = lower value, 100 = same GFP as DMSO wells
The following compounds are listed with their measured GFP response vs DMSO values.
Hi! Could you send only the number? It should be in %, unit omitted.

A selection of reference data follows.
{"mol": "O=C(O)CCCn1nc(-c2ccccc2)c2ccccc21", "unit_label": "%", "observed_measurement": 99}
{"mol": "CC(=O)c1sc2nc(C)c3c(c2c1N)CCCC3", "unit_label": "%", "observed_measurement": 89.4}

Query block: Given CCC(=O)Nc1ccc(NC(=O)c2cc3ccccc3o2)cc1 , state its recorded GFP response vs DMSO.
Result block: 103

Query block: Given O=C(OCn1ncc(Br)c(Br)c1=O)c1ccc(F)cc1 , state its recorded GFP response vs DMSO.
Result block: 99.7

Query block: Given CC(=O)c1sc(NC(=O)c2ccco2)nc1-c1ccccc1 , state its recorded GFP response vs DMSO.
Result block: 98.4

Query block: Given COc1ccc2c(/C=C/c3cc[n+](C)cc3)c[nH]c2c1 , state its recorded GFP response vs DMSO.
Result block: 102

* * *

The following compounds are listed with their measured inhibition values.
Biological target: ATP-binding cassette sub-family B member 6 (Homo sapiens)
Assay: ABCB6 transporter inhibitors, pilot screen, K562-ABCB6 cells, flow cytometry, validation set (AID 588550);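 also: 0% = DMSO wells and 100% = benzethonium chloride 70 µM positive control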
Conditions: K562-ABCB6 porphyrin accumulation, 1 h, at 10 µM, stronger effect = higher value
Hi! Could you send only the number? It should be in %, unit omitted.

A selection of reference data follows.
{"compound": "COc1ccc(C(=O)/C=C2/c3ccccc3CC(C)(C)N2C)cc1", "subject_of_test": "ATP-binding cassette sub-family B member 6 (Homo sapiens)", "unit_label": "%", "inhibition": 7}
{"compound": "COc1ccc([C@@H]2Sc3ccccc3N(CCN(C)C)C(=O)[C@@H]2OC(C)=O)cc1", "subject_of_test": "ATP-binding cassette sub-family B member 6 (Homo sapiens)", "unit_label": "%", "inhibition": -227}
{"compound": "CN1CCc2cccc3c2[C@H]1Cc1ccc(O)c(O)c1-3", "subject_of_test": "ATP-binding cassette sub-family B member 6 (Homo sapiens)", "unit_label": "%", "inhibition": -1}
{"compound": "Cc1ccc2c(CN3CCN(Cc4ccc5c(c4)OCO5)CC3)cc(=O)oc2c1C", "subject_of_test": "ATP-binding cassette sub-family B member 6 (Homo sapiens)", "unit_label": "%", "inhibition": -11}
{"compound": "O=C(/C=C/c1ccco1)N1CCN(c2ccccc2)CC1", "subject_of_test": "ATP-binding cassette sub-family B member 6 (Homo sapiens)", "unit_label": "%", "inhibition": 5}
{"compound": "COc1ccc2c(c1)C(=O)CC(c1ccccc1F)O2 (stereo unspecified)", "subject_of_test": "ATP-binding cassette sub-family B member 6 (Homo sapiens)", "unit_label": "%", "inhibition": -46}

Query block: Given C#C[C@]1(O)CC[C@H]2[C@@H]3CCC4=C(CCC(=O)C4)[C@H]3CC[C@@]21C , state its recorded inhibition.
Result block: 7

Query block: Given CN(C)CCCN1c2ccccc2CCc2ccc(Cl)cc21 , state its recorded inhibition.
Result block: 18

Query block: Given O=C(O)c1cc(-c2ccc3c(c2)OCO3)nc2ccc(Br)cc12 , state its recorded inhibition.
Result block: 8

Query block: Given CC(CCc1ccccc1)NCC(O)c1ccc(O)c(C(N)=O)c1 (stereo unspecified) , state its recorded inhibition.
Result block: 9

Query block: Given CC(C)NCC(O)COc1ccc(CCOCC2CC2)cc1 (stereo unspecified) , state its recorded inhibition.
Result block: -3
